GI50 listing for selected compounds.
Tested on: UACC-257
assay_notes: NCI tumour cell line growth inhibition, 48 h
Activity calls are given as the source filed them. Cut-off read from the data, not from the text of the source: active = GI50 up to about 1.1 µM and inactive = higher.

CCOC1OC(CO)C(O)CC1n1ccc(=O)[nH]c1=O (stereo not given) ... > 100 µM (inactive)
O=C1C2C3C=C4c5ccccc5N(c5ccccc5)C4(C2C(=O)N1Cc1ccccc1)C1C(=O)N(Cc2ccccc2)C(=O)C31 (stereo not given) ... > 100 µM (inactive)
O=C(/C=C(O)/C(=C/C(=O)c1ccccc1)NN=C(c1ccccc1)c1ccccc1)c1ccccc1 ... 26.9 µM (inactive)
O=c1c(-c2ccc3c(c2)OCO3)coc2c3c(ccc12)OCO3 ... 53.1 µM (inactive)

For the next question, use this compound.
# query: GI50 of entry O=C1Nc2nc3ccccc3n2N=C2CCCC12 (stereo not given)
> 100 µM (inactive)

Ref: ChEMBL document CHEMBL1201862
